Data origin: PubChem BioAssay (NCI)

Test system: SK-OV-3 ovarian
test summary: NCI-60 one-dose screen, 48 h
measurement setup: 10 µM
About 83,000 compounds went through this panel and 20% of them were active in at least one assay; those are over-represented in the sample as a whole. Activity calls are given as the source filed them. How the source made its calls: active means growth percent below 10; inactive means the rest.
Allowed answers: yes (1) for active, no (0) for inactive

> print(dat)
                                   molecule  classification
1  CCCN(CCC)CCC(O)c1cc2c(c3ccccc13)CCCC2 (centres undefined)          no (0)
2  COc1cc(CNCCCCCCN2C(=O)c3cccc4cccc(c34)C2=O)ccc1O          no (0)
3  CCN(CCCCCCCCCCN1CC(=O)N(CCCCCCCCCCN(CC)Cc2ccccc2OC)CC1=O)Cc1ccccc1OC         yes (1)
4                    c1ccc([I+]c2ccccc2)cc1          no (0)
5  COc1ccc(-c2nc3sccn3c2-c2nc3c([nH]2)C(=O)c2ccccc2C3=O)cc1          no (0)
6  CN1CCC2(CC1)NC(=O)c1c(c3ccc(Cl)c(Cl)c3n1C)C2C#N (centres undefined)          no (0)

Request: Write down the call the test reported for this molecule. Item: COc1cc2cc3c(nc2cc1OC)CCN3Cc1ccc(NC(=O)Nc2cc(C(F)(F)F)cc(C(F)(F)F)c2)cc1
Response: no (0)

Request: Proceed to O=C(Nc1cccc(-n2cc(-c3ccncc3)c(-c3cc(O)cc(Cl)c3)n2)c1)c1cc(C(F)(F)F)cc(C(F)(F)F)c1
Response: no (0)

Request: Ok, now Cc1c(Cl)cccc1NC(=O)c1sc2nc3c(cc2c1N)C(=O)CCC3
Response: no (0)

---

Test system: HOP-62 NSCLC
test summary: NCI-60 one-dose screen, 48 h (100 = growth as untreated, 0 = no growth, -100 = all killed)
measurement setup: 10 µM
This is part of a sample that, as a whole, favours compounds with a hit. Of some 83,000 tested, about 20% had one in any assay.
Threshold check on growth: strictly below 30% is true; on or above 30% is false.

> print(dat)
                         molecule  classification
1  Clc1cccc(-c2nc(-c3cccs3)no2)c1           false

Request: Check if growth falls below 30% for CCC(=O)N1C/C(=C/c2ccc(OC)cc2)C(=O)/C(=C/c2ccc(OC)cc2)C1 .
Response: true

Request: O=C(N/N=C/c1cc2ccccc2c2ccccc12)c1cc(O)c(O)c(O)c1 , same question.
Response: false

Request: Also Cc1ccc(NC(=O)CSc2nc3ccccc3c(=O)n2CCc2ccccc2)c(C(=O)O)c1 , if possible.
Response: false

Request: Same question for COc1cc(-c2nn3c(/C=C4/C(=O)Nc5ccccc54)c(-c4ccc(C)cc4)nc3s2)cc(OC)c1OC please.
Response: false

Request: Then this molecule: CC12O[C@H](C[C@@H](OC(=O)c3ccccc3)[C@H]1O)n1c3ccccc3c3c4c(c5c6ccccc6n2c5c31)C(=O)NC4=O
Response: false

Request: Another molecule: CCCC#CCN(CC)CC
Response: false

Request: Would you mind doing O=C1OCC2=C1C(c1cccc(Br)c1)c1cc3c(cc1N2CCO)CCC3 (centres undefined) as well?
Response: true

Request: Ok, now O=C(Nc1cccc(-n2cc(-c3ccncc3)c(-c3ccc(O)c(Cl)c3)n2)c1)c1ccc(N2CCOCC2)c(C(F)(F)F)c1
Response: false
